experiment: qHTS profiling of the MIPE4 collection as inhibitors of Plasmodium falciparum (DD2) proliferation (AID 743345); conditions: P. falciparum Dd2 in erythrocytes, SYBR Green DNA, 72 h; at 28.5 µM (top of the series) unless noted
Response field label takes y when parasite growth remaining, % of DMSO control (lower = more inhibition) is strictly below 90% and n in all other cases.

Problem: Consider `CN(Cc1cc(Br)cc(Br)c1N)C1CCCCC1` . Does its parasite growth remaining, % of DMSO control (lower = more inhibition) lie strictly below 90%?
Solution: n

Problem: Consider `C[C@@H]1C[C@H]2[C@@H]3CCC4=CC(=O)C=C[C@]4(C)[C@@]3(Cl)[C@@H](O)C[C@]2(C)[C@@]1(OC(=O)c1ccco1)C(=O)CCl` . Does its parasite growth remaining, % of DMSO control (lower = more inhibition) lie strictly below 90%?
Solution: y

Problem: Consider `CC(C)Cn1cnc2c(N)nc3ccccc3c21` . Does its parasite growth remaining, % of DMSO control (lower = more inhibition) lie strictly below 90%?
Solution: y

Problem: Consider COc1c(N2CCNC(C)C2)c(F)cc2c(=O)c(C(=O)O)cn(C3CC3)c12 (stereo not given) . Does its parasite growth remaining, % of DMSO control (lower = more inhibition) lie strictly below 90%?
Solution: y
